Listed next: entries and their corresponding cell count.
# assay method text: inhibitors of TNFa-induced NFkB p65 translocation, primary screen, imaging, HUVEC, MLSMR starter and 10KST1 sets (AID 438);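 further: compound added about 3h40 before a 20 min TNFalpha stimulation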
# experimental context: HUVEC TNFa-induced p65 nuclear translocation; measured here: nuclei count (cytotoxicity indicator), at 2.08 µM

smiles record | cell count
Cc1ccc(-n2ncc3c(N4CCN(c5ccccc5)CC4)ncnc32)c(C)c1 | 600
Cc1ccc(S(=O)(=O)N2CCN(c3nc(C(C)C)c4c(c3C#N)CC(C)(C)OC4)CC2)cc1 | 604
Nc1nc(Cl)nc2c1ncn2[C@@H]1O[C@H](CO)[C@@H](O)[C@H]1O | 493
CCCc1nc(N2CCOCC2)c(C#N)c2c1CCCC2 | 496

Now examine the next entry.
Measured cell count of Cc1nc2sccn2c(=O)c1CCN1CCC(=C(c2ccc(F)cc2)c2ccc(F)cc2)CC1 : 597

* * *

# assay method text: DUSP6 inhibitors restoring Erk phosphorylation by chemical complementation, primary imaging in DUSP6-transfected HeLa (AID 609)
# experimental context: HeLa MKP-3 transfected, phospho-Erk imaging KS statistic; measured here: cell density z-score; at 10 µM; cells stimulated with TPA for 15 min
Record 1.0 whenever z-score is at -1 or higher; record 0.0 when lower.

compound | cat
Oc1ccc(Br)cc1-c1cc(-c2ccccc2F)[nH]n1 | 0.0
OCCNc1ncnc2c1c(-c1ccccc1)c(-c1ccccc1)n2Cc1ccco1 | 0.0
Cc1ccc(-c2ccccc2NC(=O)C2C3C=CC(C3)C2C(=O)O)o1 (centres undefined) | 1.0
Cc1ccccc1NC(=O)NCCc1nc2ccccc2[nH]1 | 0.0

Is the recorded value of z-score equal to or greater than -1 for this compound? CC(C)OC(=O)C(CC(=O)O)NCc1ccccc1 (centres undefined) 1.0

Would you say Cc1nc(-c2c(-c3ccc(O)cc3O)noc2C(F)(F)F)cs1 shows z-score at minimum -1? 1.0

Form field: z-score at least -1? Entry: Cc1cn2c(-c3ccncc3)nnc2s1 1.0

Can O=C(NCc1ccco1)c1ccc(=O)oc1 be said to have z-score at or above -1? 1.0

Form field: z-score at least -1? Entry: O=C(O)C1CC=CCC1C(=O)N1CCN(c2nc(-c3ccccc3)c3ccccc3n2)CC1 (centres undefined) 0.0

* * *

# assay method text: inhibitors of Chlamydomonas gravitaxis, primary screen, whole organism, Chlamydomonas reinhardtii, WT vs cilia-less mutant, absorbance, 96-well (AID 463189);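 further: 0% = wild type cc124 cells in DMSO and 100% = ciliumless bld1 mutant cells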
# experimental context: OD600 absorbance, 2 days, at 10 µM, stronger effect = higher value
Calls of active or inactive are those of the source.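 Rule for the calls: active = inhibition at or above 50% relative to wild type and mutant plate controls; inactive = inhibition below 50%.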
endpoint name: inhibition

compound | measured result
CN1C2C=C3C(C#N)=C(N)C(C#N)(C#N)[C@@H](c4ccsc4)[C@@H]3C1CC2 (some centres undefined) | 6.82% (inactive)
COCCCNc1nc2c(c(=O)n(C)c(=O)n2C)n1Cc1cccc(OC)c1 | -3.39% (inactive)
CCOC(=O)C1CCCN(c2nc3ccccc3nc2C(C#N)C(=O)OCCOC)C1 (centres undefined) | 6.3% (inactive)
CC(=O)N1CCC2(CC1)C(C#N)=C(N)Oc1n[nH]c(C(F)(F)F)c12 | 10.5% (inactive)
COc1ccc(CNC(=O)c2c(C)cc(=O)oc2C)cc1OC | -7.01% (inactive)
O=C(O)CC(NCc1ccco1)C(=O)OCC1CCCO1 (centres undefined) | 17.1% (inactive)

Recorded inhibition (compound COc1ccc(-c2nnc3sc(COc4ccccc4)nn23)cc1 ): 150% (active)

Form: compound = CC(=NC1CCCC1)c1c(C)[nH]n(-c2nc3ccccc3s2)c1=O ; inhibition = 6.63% (inactive)

// recorded inhibition for N#CC1=C(SCc2ccccc2)NC2=C(C(=O)CCC2)C1c1ccc2c(c1)OCO2 (centres undefined) : -2.38% (inactive)

* * *

# assay method text: inhibitors of Chlamydomonas gravitaxis, primary screen, whole organism, Chlamydomonas reinhardtii, WT vs cilia-less mutant, absorbance, 96-well (AID 463189);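 further: 0% = wild type cc124 cells in DMSO and 100% = ciliumless bld1 mutant cells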
# experimental context: OD600 absorbance, 2 days, at 10 µM, stronger effect = higher value
Entries and their measured inhibition follow.
Use % as the unit, but write only the number.

Known inhibition results, listed for orientation:
molecule | inhibition (%)
CC(C)CN1C(=O)NC(NC(=O)c2cccnc2)(C(F)(F)F)C1=O (stereo unspecified) | -0.985
CNc1ccccc1-c1nc2ccccc2n(C)c1=O | 16
O=C(c1ccccc1F)N1CCC(N2CCCCCC2)CC1 | 50.6
Cn1c(=O)c2c(nc(Oc3ccc4c(c3)OCO4)n2Cc2ccc(F)cc2)n(C)c1=O | -14.6
CCOc1ccc(/C(O)=C2/C(=O)C(=O)N(CCN(C)C)C2c2ccccc2)cc1Cl (stereo unspecified) | 2.01

Noted for CC1(C(=O)O)CCC(C(=O)NC2CCCCCC2)C1(C)C (stereo unspecified) : its inhibition reads 28.8

Memo: O=c1[nH]c(CN2CCCCC2)nc2c1C1(CCCC1)Cc1ccccc1-2 , reported inhibition: -2.89

Record CCCCNC(=O)c1cc2n(n1)C(C(F)(F)F)CC(c1ccccc1)N2 (stereo unspecified) . Reported inhibition: -3.15

Lab note: measured inhibition of OC(CCN1CCCC1)(c1ccccc1)C1CCCCC1 (stereo unspecified) was 37.7

Looking up CCN(CC)c1ccc2cc(C(=O)Nc3ccccn3)c(=O)oc2c1 , I see its inhibition listed as 20.3

For reference, reported inhibition for COC(=O)Cn1cc(C(=O)OC)cc(Br)c1=O stands at -6.78

What the record says about Fc1ccc(-c2cnc[nH]2)cc1 : inhibition is -0.515

Sample COc1ccccc1N1CCN(C2CCN(C(=O)c3cc(OC)c(OC)c(OC)c3)CC2)CC1 ; inhibition observed: -0.971

Entry Cc1ccc(C2/C(=C(/O)c3ccc(OC(C)C)cc3)C(=O)C(=O)N2CCN2CCOCC2)cc1 (stereo unspecified) , inhibition reported as 2.83

Looking up COCCN(CCOC)C(=O)C12CCC(C)(C(=O)C1)C2(C)C (stereo unspecified) , I found its inhibition recorded as -24.6

inhibition measured on O=C(c1nsnc1-c1ccccc1O)N1CCCCC1 = 24.8

Data point: CCOC(=O)CSc1nc(-c2ccncc2)ccc1C#N ; inhibition = -7.15

# inhibition (molecule: CC(C)Cc1nc(N2CCN(C(=O)c3ccco3)CC2)c(C#N)c2c1CCC2 ) is -2

So for CC(=O)O[C@H]1C(=O)[C@]2(C)[C@H]([C@H](OC(=O)c3ccccc3)[C@]3(O)C[C@H](OC(=O)[C@H](O)[C@@H](NC(=O)c4ccccc4)c4ccccc4)C(C)=C1C3(C)C)[C@]1(OC(C)=O)CO[C@@H]1C[C@@H]2O , the logged inhibition turned out to be 0.148

Looking up CCSC(SCC)[C@H](O)[C@@H](O)[C@H](O)[C@H](O)CO , I see its inhibition listed as -8.68

inhibition reading for CCOc1ccc(C2/C(=C(/O)c3ccc(F)cc3)C(=O)C(=O)N2CCCN(C)C)cc1 (stereo unspecified) : -0.349

For C=C(C)C1Cc2c(C)nn(-c3nc(C)cc(C)n3)c2C1 (stereo unspecified) the molecule record lists inhibition as 51.6

* * *

Property: z-score; scope: individual compounds
# assay method text: DUSP6 inhibitors restoring Erk phosphorylation by chemical complementation, primary imaging in DUSP6-transfected HeLa (AID 609)
# experimental context: HeLa MKP-3 transfected, phospho-Erk imaging KS statistic; measured here: nuclear c-Myc green intensity z-score; at 10 µM; cells stimulated with TPA for 15 min
A bare number is all that is needed in reply.

compound | z-score
COC(=O)CSc1nc(N)c2c3c(sc2n1)CCCC3 | 0.19
CCOC(=O)CNS(=O)(=O)c1cc(-c2nn(C)c(=O)c3ccccc23)ccc1C | -1.09

What the record says about COc1ccccc1OCC(O)COC(N)=O (stereo not drawn) : z-score is 0.796

* * *

# assay method text: DUSP6 inhibitors restoring Erk phosphorylation by chemical complementation, primary imaging in DUSP6-transfected HeLa (AID 609)
# experimental context: HeLa MKP-3 transfected, phospho-Erk imaging KS statistic; measured here: nuclear c-Myc green intensity z-score; at 10 µM; cells stimulated with TPA for 15 min
endpoint name: z-score
I'd appreciate a reply containing only the number, no unit.

Below are worked cases with known answers.
compound | z-score
COc1cccc(/C=C2/CN(C)CC3=C2OC(N)=C(C#N)C3c2cccc(OC)c2)c1 (stereo unspecified) | -1.04
CN1C(=O)N(c2ccccc2)C(Nc2nncs2)C1(C)C (stereo unspecified) | 0.524
CCCCCC1CC(CC#CCN2CCOCC2)C(=O)O1 (stereo unspecified) | -0.292
Cc1ccc(C(=O)C2=C(O)C(=O)N(c3ncccn3)C2c2cccc(Cl)c2)o1 (stereo unspecified) | 0.527
COc1ccc(-c2nnc3sc(-c4ccccc4OC)nn23)cc1 | -0.23
c1cncc(Oc2cccc(Oc3cccnc3)c2)c1 | 0.96
COC(=O)c1ccccc1NC=C1C(=O)OC2(CCCCC2)OC1=O | -1.2
COCCCNC(=O)C(C#N)c1nc2ccccc2nc1N1CCN(Cc2ccccc2)CC1 (stereo unspecified) | -0.494
Cc1nc(SCC(=O)c2ccccc2)c(C#N)c(-c2ccco2)c1C(=O)NCc1ccco1 | -0.115
COC(=O)Nc1nc2ccc(Sc3ccccc3)cc2[nH]1 | 0.104

Lab note: COc1cc(NC(=O)NC(C)(C(F)(F)F)C(F)(F)F)cc(OC)c1OC gave z-score of -0.586

Summary for this compound, OC[C@H]1O[C@@H](n2cnc3c(NC4CCCC4)ncnc32)[C@H](O)[C@@H]1O : z-score is -0.327

Noted for Cc1nc2sc3c(c2c(=O)o1)CC(C)(C)OC3 : its z-score reads 1.45

Per the record, Cc1ccc(S(=O)(=O)NC(=O)NCc2ccc3c(c2)OCO3)cc1 has z-score of 0.582

Record C[C@]12C=CC(=O)C=C1CC[C@@H]1[C@@H]2[C@@H](O)C[C@@]2(C)[C@H]1CC[C@]2(O)C(=O)COC(=O)CCC(=O)O . Reported z-score: 0.17

Just so you know, measured z-score for CC1CN(c2oc(-c3cccs3)nc2C#N)CC(C)O1 (stereo unspecified) came out at 0.306

// z-score lookup, compound = COCc1cc(=O)[nH]c(Nc2nc3ccc(C)cc3o2)n1 , result: 0.499

For CC1CCc2cc(F)cc3c(O)c(C(=O)NCc4ccco4)c(=O)n1c23 (stereo unspecified) the compound record lists z-score as 1.87

Source of measurements: PubChem BioAssay
